# Tested system: PSOMT1 ((R,S)-reticuline 7-O-methyltransferase) (Papaver somniferum)
# Construct: The full-length cDNA generated by RT-PCR was ligated into pFastBac HTa; His6 (N); made in house; host or cells: Spodoptera frugiperda Sf9 (baculovirus, pFastBac HTa)
# Format: biochemical
# Condition: PSOMT1
Listed molecules paired with reported Vmax Substrate
Write down the numeric answer in pmol/s and omit the unit.

Worked set:
| Molecule | Vmax Substrate [pmol/s] |
| --- | --- |
| COc1ccccc1O [Guaiacol] | 6 |
| COc1ccc(C[C@@H]2c3cc(OC)c(O)cc3CCN2C)cc1O [(R)-Protosinomenine] | 2 |
| COc1cc(CC2c3cc(OC)c(O)cc3CCN2C)ccc1O (racemic) [(R,S)-Isoorientaline] | 1 |
| COc1ccc(C(=O)O)cc1O [Isovanillic acid] | 1 |
| COc1ccc(C[C@H]2c3cc(O)c(OC)cc3CCN2C)cc1O [(S)-Reticuline] | 4 |

Here is the next item to consider.
Please look up its Vmax Substrate: COc1ccc(C[C@@H]2c3cc(O)c(OC)cc3CCN2C)cc1O [(R)-Reticuline]
4

----------
Listed compounds paired with reported Km
# Tested system: PSOMT2 ((R,S)-norcoclaurine 6-O-methyltransferase) (Papaver somniferum, UniProt Q6WUC1)
# Construct: The full-length cDNA generated by RT-PCR was ligated into pFastBac HTa; His6 (N); made in house; host or cells: Spodoptera frugiperda Sf9 (baculovirus, pFastBac HTa)
# Sequence (Q6WUC1 whole entry): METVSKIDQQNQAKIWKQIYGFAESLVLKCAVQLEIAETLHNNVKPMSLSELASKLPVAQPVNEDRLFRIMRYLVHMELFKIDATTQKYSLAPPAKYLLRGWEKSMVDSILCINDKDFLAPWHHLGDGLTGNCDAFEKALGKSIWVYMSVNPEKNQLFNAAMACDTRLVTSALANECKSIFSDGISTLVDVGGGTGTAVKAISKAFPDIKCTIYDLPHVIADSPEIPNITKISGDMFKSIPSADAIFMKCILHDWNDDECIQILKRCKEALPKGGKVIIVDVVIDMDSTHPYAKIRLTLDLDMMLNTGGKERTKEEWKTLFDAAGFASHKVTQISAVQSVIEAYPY
# Assay summary: Radioassay of recombinant PSOMT2 with [methyl-3H]-AdoMet (substrate specificity, kinetics, pH and temperature optima)
# Format: biochemical
# Condition: PSOMT2; co-substrate AdoMet with the named substrate; read-out: Km AdoMet
# Method: Heterologous Expression and Enzyme Purification—The full-length cDNA generated by RT-PCR was ligated into pFastBac HTa that had been digested with restriction endonucleases BamHI and NotI. […] General Methods—Total RNA was isolated and RNA gels were run and blotted as described previously (20). […] The entire nucleotide sequence on both DNA strands of the full-length clone was determined by dideoxy cycle sequencing using internal DNA sequences for the design of deoxyoligonucleotides as sequencing primers. […]
Write down the numeric answer in µM and omit the unit.

Worked set:
| Compound | Tested system | Measured endpoint | Units label | Number |
| --- | --- | --- | --- | --- |
| Oc1ccc(CC2NCCc3cc(O)c(O)cc32)cc1 (racemic) [(R,S)-Norcoclaurine] | PSOMT2 ((R,S)-norcoclaurine 6-O-methyltransferase) (Papaver somniferum, UniProt Q6WUC1) | Km | µM | 100 |
| COc1cc(CC2c3cc(OC)c(O)cc3CCN2C)ccc1O (racemic) [(R,S)-Isoorientaline] | PSOMT2 ((R,S)-norcoclaurine 6-O-methyltransferase) (Papaver somniferum, UniProt Q6WUC1) | Km | µM | 280 |
| COc1ccc(C[C@@H]2NCCc3cc(O)c(OC)cc32)cc1O [(S)-Norprotosinomenine] | PSOMT2 ((R,S)-norcoclaurine 6-O-methyltransferase) (Papaver somniferum, UniProt Q6WUC1) | Km | µM | 260 |

Here is the next item to consider.
Please look up its Km: COc1ccc(C[C@H]2NCCc3cc(O)c(OC)cc32)cc1O [(R)-Norprotosinomenine]
200

----------
# Tested system: PSOMT2 ((R,S)-norcoclaurine 6-O-methyltransferase) (Papaver somniferum)
# Construct: The full-length cDNA generated by RT-PCR was ligated into pFastBac HTa; His6 (N); made in house; host or cells: Spodoptera frugiperda Sf9 (baculovirus, pFastBac HTa)
# Assay summary: Radioassay of recombinant PSOMT2 with [methyl-3H]-AdoMet (substrate specificity, kinetics, pH and temperature optima)
# Type: biochemical
# Condition: PSOMT2; read-out: Km Substrate
Listed compounds paired with reported Km
Write down the numeric answer in µM and omit the unit.

| Compound | Km [µM] |
| --- | --- |
| Oc1ccc(CC2NCCc3cc(O)c(O)cc32)cc1 (racemic) [(R,S)-Norcoclaurine] | 10 |
| COc1ccc(C[C@H]2NCCc3cc(O)c(OC)cc32)cc1O [(R)-Norprotosinomenine] | 5 |
| COc1cc(CC2c3cc(OC)c(O)cc3CCN2C)ccc1O (racemic) [(R,S)-Isoorientaline] | 29 |

Here is the next item to consider.
Please look up its Km: COc1ccc(C[C@@H]2NCCc3cc(O)c(OC)cc32)cc1O [(S)-Norprotosinomenine]
5

----------
# Tested system: PSOMT1 ((R,S)-reticuline 7-O-methyltransferase) (Papaver somniferum)
# Construct: The full-length cDNA generated by RT-PCR was ligated into pFastBac HTa; His6 (N); made in house; host or cells: Spodoptera frugiperda Sf9 (baculovirus, pFastBac HTa)
# Assay type: biochemical
# Condition: PSOMT1
Measured endpoint: pH optimum of methylation

Worked set:
| Compound | Tested system | pH optimum of methylation |
| --- | --- | --- |
| COc1ccc(C[C@H]2c3cc(O)c(OC)cc3CCN2C)cc1O [(S)-Reticuline] | PSOMT1 ((R,S)-reticuline 7-O-methyltransferase) (Papaver somniferum) | 8.0 |
| COc1ccc(C(=O)O)cc1O | PSOMT1 ((R,S)-reticuline 7-O-methyltransferase) (Papaver somniferum) | 7.5 |
| COc1cc(CC2c3cc(OC)c(O)cc3CCN2C)ccc1O (racemic) [(R,S)-Isoorientaline] | PSOMT1 ((R,S)-reticuline 7-O-methyltransferase) (Papaver somniferum) | 7.5-9.0 |
| COc1ccc(C[C@@H]2c3cc(O)c(OC)cc3CCN2C)cc1O [(R)-Reticuline] | PSOMT1 ((R,S)-reticuline 7-O-methyltransferase) (Papaver somniferum) | 8.0 |
| COc1ccccc1O | PSOMT1 ((R,S)-reticuline 7-O-methyltransferase) (Papaver somniferum) | 8.0 |

Please look up its pH optimum of methylation: COc1ccc(C[C@@H]2c3cc(OC)c(O)cc3CCN2C)cc1O [(R)-Protosinomenine]
9.0

----------
Listed molecules paired with reported ratio kcat/Km
# Tested system: PSOMT1 ((R,S)-reticuline 7-O-methyltransferase) (Papaver somniferum, UniProt Q6WUC2)
# Construct: The full-length cDNA generated by RT-PCR was ligated into pFastBac HTa; His6 (N); made in house; host or cells: Spodoptera frugiperda Sf9 (baculovirus, pFastBac HTa)
# Sequence (Q6WUC2 whole entry): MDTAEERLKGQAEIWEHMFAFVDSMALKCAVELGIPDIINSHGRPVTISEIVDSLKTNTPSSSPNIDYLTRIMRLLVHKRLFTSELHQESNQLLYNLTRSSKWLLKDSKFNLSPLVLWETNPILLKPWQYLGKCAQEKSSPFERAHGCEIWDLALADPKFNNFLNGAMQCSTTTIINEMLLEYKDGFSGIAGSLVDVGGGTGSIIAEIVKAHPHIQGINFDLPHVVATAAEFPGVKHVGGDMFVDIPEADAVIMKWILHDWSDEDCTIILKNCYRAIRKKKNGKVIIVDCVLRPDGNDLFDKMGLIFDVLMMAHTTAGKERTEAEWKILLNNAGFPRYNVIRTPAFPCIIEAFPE
# Format: biochemical
# Condition: PSOMT1
Write down the numeric answer in M⁻¹ s⁻¹ and omit the unit.

Worked set:
| Molecule | Units label | ratio kcat/Km |
| --- | --- | --- |
| COc1ccccc1O | M⁻¹ s⁻¹ | 5870 |
| COc1cc(CC2c3cc(OC)c(O)cc3CCN2C)ccc1O (racemic) [(R,S)-Isoorientaline] | M⁻¹ s⁻¹ | 1440 |
| COc1ccc(C[C@@H]2c3cc(OC)c(O)cc3CCN2C)cc1O [(R)-Protosinomenine] | M⁻¹ s⁻¹ | 1670 |
| COc1ccc(C[C@@H]2c3cc(O)c(OC)cc3CCN2C)cc1O [(R)-Reticuline] | M⁻¹ s⁻¹ | 4200 |
| COc1ccc(C[C@H]2c3cc(O)c(OC)cc3CCN2C)cc1O [(S)-Reticuline] | M⁻¹ s⁻¹ | 4500 |

Here is the next item to consider.
Please look up its ratio kcat/Km: "COc1ccc(C(=O)O)cc1O"
1210

----------
# Tested system: PSOMT2 ((R,S)-norcoclaurine 6-O-methyltransferase) (Papaver somniferum)
# Construct: The full-length cDNA generated by RT-PCR was ligated into pFastBac HTa; His6 (N); made in house; host or cells: Spodoptera frugiperda Sf9 (baculovirus, pFastBac HTa)
# Assay summary: Radioassay of recombinant PSOMT2 with [methyl-3H]-AdoMet (substrate specificity, kinetics, pH and temperature optima)
# Type: biochemical
# Condition: PSOMT2
# Protocol: Heterologous Expression and Enzyme Purification—The full-length cDNA generated by RT-PCR was ligated into pFastBac HTa that had been digested with restriction endonucleases BamHI and NotI. […] General Methods—Total RNA was isolated and RNA gels were run and blotted as described previously (20). […] The entire nucleotide sequence on both DNA strands of the full-length clone was determined by dideoxy cycle sequencing using internal DNA sequences for the design of deoxyoligonucleotides as sequencing primers. […]
Measured endpoint: kcat Substrate
Kindly format the answer as number then unit.

Worked set:
| Molecule | kcat Substrate |
| --- | --- |
| COc1cc(CC2c3cc(OC)c(O)cc3CCN2C)ccc1O (racemic) [(R,S)-Isoorientaline] | 0.03 s⁻¹ |
| Oc1ccc(CC2NCCc3cc(O)c(O)cc32)cc1 (racemic) [(R,S)-Norcoclaurine] | 0.08 s⁻¹ |

Please look up its kcat Substrate: COc1ccc(C[C@@H]2NCCc3cc(O)c(OC)cc32)cc1O [(S)-Norprotosinomenine]
0.02 s⁻¹

Proceed to COc1ccc(C[C@H]2NCCc3cc(O)c(OC)cc32)cc1O [(R)-Norprotosinomenine]
0.02 s⁻¹

----------
# Tested system: PSOMT1 ((R,S)-reticuline 7-O-methyltransferase) (Papaver somniferum, UniProt Q6WUC2)
# Construct: The full-length cDNA generated by RT-PCR was ligated into pFastBac HTa; His6 (N); made in house; host or cells: Spodoptera frugiperda Sf9 (baculovirus, pFastBac HTa)
# Type: biochemical
# Condition: 100% activity = 1.5 pmoles/sec/mg total protein; radioassay
Measured endpoint: Substrate specificity, relative activity of PSOMT1 (%)
Write down the numeric answer in % and omit the unit.

| Molecule | Number |
| --- | --- |
| O=C(O)c1ccc(O)c(O)c1 | 0 |
| COc1c(-c2ccc(O)c(O)c2)oc2cc(O)cc(O)c2c1=O | 0 |

Here is the next item to consider.
Please look up its Substrate specificity, relative activity of PSOMT1: COc1ccc(CC2NCCc3cc(OC)c(O)cc32)cc1 (racemic) [(R,S)-4′-O-methylcoclaurine]
0
